system: umbrella sedge (Cyperus difformis); test: Test C flooded paddy test; format: in vivo; conditions: Flood, 500 g ai/ha; scale 0 to 100
// reported Plant response rating, Sedge, Umbrella for each item listed
readout: Plant response rating, Sedge, Umbrella

[
  {
    "record smiles": "CCOC(=O)c1nc(-c2ccc(Cl)cc2)nc(N)c1Br",
    "assayed target": "umbrella sedge (Cyperus difformis)",
    "readout": "Plant response rating, Sedge, Umbrella",
    "measured number": 95
  },
  {
    "record smiles": "CCOC(=O)c1nc(C2CC2)nc(N)c1Cl",
    "assayed target": "umbrella sedge (Cyperus difformis)",
    "readout": "Plant response rating, Sedge, Umbrella",
    "measured number": 75
  },
  {
    "record smiles": "COC(=O)c1nc(C2CC2)nc(N)c1Cl",
    "assayed target": "umbrella sedge (Cyperus difformis)",
    "readout": "Plant response rating, Sedge, Umbrella",
    "measured number": 85
  },
  {
    "record smiles": "CCCOC(=O)c1nc(C2CC2)nc(N)c1Br",
    "assayed target": "umbrella sedge (Cyperus difformis)",
    "readout": "Plant response rating, Sedge, Umbrella",
    "measured number": 25
  }
]

###

// reported pest or weed control at 62 g/ha for each item listed
tested on: cocklebur (Xanthium strumarium); assay: Test B pre/postemergence; format: in vivo; details: Xanthium strumarium, post-emergence, Postemergence, 62 g ai/ha; scale 0 to 100 (0 no effect, 100 complete control); read-out: Cocklebur plant response rating

[
  {
    "record smiles": "CCOC(=O)c1nc(C2CC2)nc(NC(C)=O)c1Br",
    "assayed target": "cocklebur (Xanthium strumarium)",
    "pest or weed control at 62 g/ha, %": 50
  },
  {
    "record smiles": "CCOC(=O)c1nc(-c2ccc(Br)cc2)nc(N)c1Cl",
    "assayed target": "cocklebur (Xanthium strumarium)",
    "pest or weed control at 62 g/ha, %": 100
  },
  {
    "record smiles": "CCOC(=O)c1nc(C2CC2)nc(N)c1Cl",
    "assayed target": "cocklebur (Xanthium strumarium)",
    "pest or weed control at 62 g/ha, %": 90
  },
  {
    "record smiles": "Nc1nc(C2CC2)nc(C(=O)OCc2ccccc2)c1Cl",
    "assayed target": "cocklebur (Xanthium strumarium)",
    "pest or weed control at 62 g/ha, %": 100
  }
]

###

// reported Plant response rating, Foxtail, Green for each item listed
tested on: green foxtail (Setaria viridis); assay: Test G pre/postemergence; assay type: in vivo; conditions: Postemergence; 62 g ai/ha; scale 0 to 100

[
  {
    "compound": "CCOC(=O)c1nc(C2CC2)nc(N)c1Br [Compound 1]",
    "Plant response rating, Foxtail, Green": 10
  },
  {
    "compound": "Nc1nc(C2CC2)nc(C(=O)[O-])c1Cl.[Na+] [Compound 77]",
    "Plant response rating, Foxtail, Green": 35
  },
  {
    "compound": "Nc1nc(C2CC2)nc(C(=O)OCc2ccccc2)c1Br [Compound 22]",
    "Plant response rating, Foxtail, Green": 25
  },
  {
    "compound": "CCOC(=O)c1nc(-c2ccc(Cl)cc2)nc(N)c1Cl [Compound 64]",
    "Plant response rating, Foxtail, Green": 0
  }
]

###

system: barnyardgrass (Echinochloa crus-galli); experiment: Test B flooded paddy test; assay type: in vivo; settings: Flood, 1000 g ai/ha; scale 0 (no effect) to 100 (complete control)
// reported Plant response rating, Barnyardgrass for each item listed

[
  {
    "molecule": "CCOC(=O)Cc1nc(C2CC2)nc(N=CN(C)C)c1Br",
    "assayed target": "barnyardgrass (Echinochloa crus-galli)",
    "Plant response rating, Barnyardgrass": 0
  },
  {
    "molecule": "CCOC(=O)C(C)c1nc(C2CC2)nc(N)c1Br (stereo not shown)",
    "assayed target": "barnyardgrass (Echinochloa crus-galli)",
    "Plant response rating, Barnyardgrass": 0
  },
  {
    "molecule": "CCOC(=O)c1nc(C2CC2)nc(NCCOC)c1Br",
    "assayed target": "barnyardgrass (Echinochloa crus-galli)",
    "Plant response rating, Barnyardgrass": 0
  },
  {
    "molecule": "CC(=O)NN=Cc1nc(C2CC2)nc(N)c1Br",
    "assayed target": "barnyardgrass (Echinochloa crus-galli)",
    "Plant response rating, Barnyardgrass": 0
  },
  {
    "molecule": "CCOC(=O)C(OC(C)=O)c1nc(C2CC2)nc(N)c1Br (stereo not shown)",
    "assayed target": "barnyardgrass (Echinochloa crus-galli)",
    "Plant response rating, Barnyardgrass": 0
  },
  {
    "molecule": "CNN=Cc1nc(C2CC2)nc(N)c1Br",
    "assayed target": "barnyardgrass (Echinochloa crus-galli)",
    "Plant response rating, Barnyardgrass": 50
  },
  {
    "molecule": "CCOC(=O)c1nc(-c2ccc(Cl)cc2)nc(N)c1Br",
    "assayed target": "barnyardgrass (Echinochloa crus-galli)",
    "Plant response rating, Barnyardgrass": 20
  },
  {
    "molecule": "CCOC(=O)c1nc(C2CC2)nc(NCCN(C)C)c1Br",
    "assayed target": "barnyardgrass (Echinochloa crus-galli)",
    "Plant response rating, Barnyardgrass": 0
  },
  {
    "molecule": "CC(C)COC(=O)c1nc(C2CC2)nc(N)c1Br",
    "assayed target": "barnyardgrass (Echinochloa crus-galli)",
    "Plant response rating, Barnyardgrass": 80
  },
  {
    "molecule": "CN(C)N=Cc1nc(C2CC2)nc(N)c1Br",
    "assayed target": "barnyardgrass (Echinochloa crus-galli)",
    "Plant response rating, Barnyardgrass": 30
  }
]

###

tested on: cocklebur (Xanthium strumarium); experiment: Test C pre/postemergence; format: in vivo; conditions: Preemergence, 125 g ai/ha; scale 0 to 100
Description: […]
readout: Plant response rating, Cocklebur

[
  {
    "compound": "Nc1nc(-c2ccc(Cl)cc2)nc(C(=O)[O-])c1Cl.[Na+] [Compound 117]",
    "measured number": 90
  },
  {
    "compound": "COC(=O)c1nc(C2CC2C)nc(N)c1Br (stereo not drawn) [Compound 28]",
    "measured number": 95
  },
  {
    "compound": "CNN=Cc1nc(C2CC2)nc(N)c1Br [Compound 49]",
    "measured number": 95
  },
  {
    "compound": "CN(C)N=Cc1nc(C2CC2)nc(N)c1Br [Compound 50]",
    "measured number": 85
  },
  {
    "compound": "COCc1nc(C2CC2)nc(N)c1Br [Compound 11]",
    "measured number": 0
  },
  {
    "compound": "CCCCOC(=O)c1nc(C2CC2)nc(N)c1Br [Compound 16]",
    "measured number": 95
  }
]

###

// reported Plant response rating, Sedge, Umbrella for each item listed
test system: umbrella sedge (Cyperus difformis); test: Test B flooded paddy test; format: in vivo; conditions: Flood, 1000 g ai/ha; scale 0 to 100
readout: Plant response rating, Sedge, Umbrella

[
  {
    "compound": "CCOC(=O)Cc1nc(C2CC2)nc(N)c1Br",
    "measured number": 0
  },
  {
    "compound": "COC(=O)c1nc(C2CC2C)nc(N)c1Br (stereo not shown)",
    "measured number": 0
  },
  {
    "compound": "Nc1nc(C2CC2)nc(C=NO)c1Br",
    "measured number": 60
  },
  {
    "compound": "CCOC(=O)c1nc(C2CC2)nc(N=CN(C)C)c1Br",
    "measured number": 70
  }
]

###

system: velvetleaf (Abutilon theophrasti); assay: Test B pre/postemergence; type: in vivo; details: Abutilon theophrasti, post-emergence, Postemergence, 125 g ai/ha; scale 0 to 100 (0 no effect, 100 complete control); read-out: Velvetleaf plant response rating
Flag rule - pest or weed control at 125 g/ha less than 80% flags Fulfilled; the remaining entries get Not fulfilled.

[
  {
    "compound": "COC(=O)c1nc(C2CC2)nc(N)c1I",
    "discrete label": "Fulfilled"
  },
  {
    "compound": "Nc1nc(C2CC2)nc(C(=O)[O-])c1Cl.[Na+] [Compound 77, monosodium salt]",
    "discrete label": "Not fulfilled"
  },
  {
    "compound": "Nc1nc(C2CC2)nc(C(=O)OCc2ccccc2)c1Br",
    "discrete label": "Not fulfilled"
  },
  {
    "compound": "COC(=O)c1nc(C2CC2)nc(N)c1Br",
    "discrete label": "Fulfilled"
  },
  {
    "compound": "CCOC(=O)c1nc(-c2ccc(Br)cc2)nc(N)c1Cl",
    "discrete label": "Not fulfilled"
  },
  {
    "compound": "CCOC(=O)c1nc(C(C)(C)C)nc(N)c1Br",
    "discrete label": "Fulfilled"
  },
  {
    "compound": "COC(=O)c1nc(C2CC2)nc(N)c1Cl",
    "discrete label": "Not fulfilled"
  },
  {
    "compound": "COC(=O)c1nc(C(C)C)nc(N)c1Br",
    "discrete label": "Fulfilled"
  }
]
